Values were extracted from patent US20100104628A1.

# test_details: in vitro
# Type: cell-based, human
# condition_details: human, 48 hr assay, cells treated with 5 μM cmMIBG for 3 hrs, then melphalan added; read-out: Cytotoxicity IC50 of melphalan
experimental_readout: IC50 at 48 h (µM)
Hi! Could you send only the number? It should be in µM, unit omitted.

Q: Which IC50 at 48 h is reported for this compound? `N[C@@H](Cc1ccc(N(CCCl)CCCl)cc1)C(=O)O`
A: 43

----------
# System: SK-N-BE(2c) (NET ++++)
# test_details: cells
# Type: cell-based
# condition_details: 48 hr assay, single agent, Table 4; read-out: Cytotoxicity IC50
experimental_readout: IC50

Q: Which IC50 is reported for this compound? N=C(N)NCc1ccc(CCl)c(I)c1 [Chloromethyl-MIBG]
A: 4.6 µM

----------
# test_details: in vitro
# Format: cell-based, human
# condition_details: human, 24 hr assay, + 5 μM cmMIBG (Table 2D); read-out: Cytotoxicity IC50 of melphalan
experimental_readout: IC50 at 24 h (µM)
Hi! Could you send only the number? It should be in µM, unit omitted.

Q: Which IC50 at 24 h is reported for this compound? `N[C@@H](Cc1ccc(N(CCCl)CCCl)cc1)C(=O)O`
A: 276

----------
# Test system: SK-N-BE(2c) (NET ++++)
# test_details: cells
# Assay type: cell-based
# condition_details: SK-N-BE(2)-C, 24 h, read-out: Cytotoxicity IC50 of melphalan, competition experiment, 24 hr assay, + 5 μM cmMIBG + 5 μM MIBG
experimental_readout: pIC50
Value format note: pIC50 is -log10 of concentration (mol/L); just state the number.

Q: Which pIC50 is reported for this compound? N[C@@H](Cc1ccc(N(CCCl)CCCl)cc1)C(=O)O [Melphalan]
A: 4.64

----------
# Test system: SK-N-SH (NET ++)
# test_details: Cytotoxicity, MTT assay, SK-N-SH
# Type: cell-based
# condition_details: Homo sapiens, SK-N-SH, 48 h, read-out: Cytotoxicity IC50, 48 hr assay, single agent, Table 4
experimental_readout: IC50 (µM)
Hi! Could you send only the number? It should be in µM, unit omitted.

Q: Which IC50 is reported for this compound? N[C@@H](Cc1ccc(N(CCCl)CCCl)cc1)C(=O)O [Melphalan]
A: 54.1
